Value source: patent US20260130395A1

ASSAY NAME: Stability of cannabinoid compounds and Vitamin E components in Beverage 1 (AB White) by LCMSMS
Assay type: physicochemical
STUDY CONDITIONS: AB White stored at 21-25° C.; 0 days
ENDPOINT: Stability of Plant-Derived Cannabinoid Compounds in AB White, 21-25° C. (µg/mL)
Express it in µg/mL; write the number only.

# annotated cases, reported Stability of Plant-Derived Cannabinoid Compounds in AB White, 21-25° C. shown
• C=C(C)[C@@H]1CCC(C)=C[C@H]1c1c(O)cc(CCC)cc1O = 0.150
• CCCCCc1cc(O)c2c(c1)OC(C)(C)c1ccc(C)cc1-2 = 2.79
• CCCc1cc(O)c2c(c1)OC(C)(C)[C@@H]1CCC(C)=C[C@@H]21 [THCV, delta-9-tetrahydrocannabivarin] = 3.6

Q: Answer with the recorded Stability of Plant-Derived Cannabinoid Compounds in AB White, 21-25° C. for the compound listed here: CCCCCc1cc(O)c2c(c1)OC(C)(CCC=C(C)C)C=C2 (stereo not shown)
Result: 0.320

----------
ASSAY NAME: Stability of cannabinoid compounds and Vitamin E components in Beverage 1 (AB White) by LCMSMS
Assay type: physicochemical
STUDY CONDITIONS: AB White stored at 8° C.; 22 days
ENDPOINT: Stability of Plant-Derived Cannabinoid Compounds in AB White, 8° C. (µg/mL)
Express it in µg/mL; write the number only.

# annotated cases, reported Stability of Plant-Derived Cannabinoid Compounds in AB White, 8° C. shown
• CCCCCc1cc(O)c2c(c1)OC1(C)CCC3C1C2C3(C)C (stereo not drawn) = 0.555
• CCCCCc1cc(O)c2c(c1)OC(C)(CCC=C(C)C)C=C2 (stereo not drawn) = 0.315
• C=C(C)[C@@H]1CCC(C)=C[C@H]1c1c(O)cc(CCC)cc1O = 0.149

Q: Answer with the recorded Stability of Plant-Derived Cannabinoid Compounds in AB White, 8° C. for the compound listed here: "C=C(C)[C@@H]1CCC(C)=C[C@H]1c1c(O)cc(CCCCC)c(C(=O)O)c1O"
Result: 1.70

Q: Answer with the recorded Stability of Plant-Derived Cannabinoid Compounds in AB White, 8° C. for the compound listed here: "CCCCCc1cc(O)c(C/C=C(\C)CCC=C(C)C)c(O)c1"
Result: 4.75

Q: Answer with the recorded Stability of Plant-Derived Cannabinoid Compounds in AB White, 8° C. for the compound listed here: CCCc1cc(O)c2c(c1)OC(C)(C)[C@@H]1CCC(C)=C[C@@H]21 [THCV, delta-9-tetrahydrocannabivarin]
Result: 3.60

----------
ASSAY NAME: Stability of cannabinoid compounds and Vitamin E components in Beverage 2 (AB Red) by LCMSMS
Format: physicochemical
STUDY CONDITIONS: stored at 8° C., 450 days
ENDPOINT: Stability of Plant-Derived Cannabinoid Compounds in AB Red (µg/mL)
Express it in µg/mL; write the number only.

# annotated cases, reported Stability of Plant-Derived Cannabinoid Compounds in AB Red shown
* CCCCCc1cc(O)c2c(c1)OC(C)(C)[C@@H]1CCC(C)=C[C@@H]21 [D9 THC, delta-9-tetrahydrocannabinol, reference compound] | 12.4
* C=C(C)[C@@H]1CCC(C)=C[C@H]1c1c(O)cc(CCC)cc1O [CBDV, cannabidivarin] | 0.195
* CCCCCc1cc2c(c(O)c1C(=O)O)[C@@H]1C=C(C)CC[C@H]1C(C)(C)O2 [D9 THCA, delta-9-tetrahydrocannabinolic acid] | 1.31
* CCCCCc1cc(O)c(C/C=C(\C)CCC=C(C)C)c(O)c1 [CBG, cannabigerol] | 4.54

# context switch: different compound, same Stability of Plant-Derived Cannabinoid Compounds in AB Red
Q: Answer with the recorded Stability of Plant-Derived Cannabinoid Compounds in AB Red for the compound listed here: CCCCCc1cc(O)c2c(c1)OC1(C)CCC3C1C2C3(C)C (centres unmarked) [CBL, cannabicyclol]
Result: 0.492
